- System: HepG2
- assay_name: Cell cycle arrest in human HepG2 cells assessed as accumulation at S phase at 1 uM by FACS analysis relative to control
- Type: functional
observable: Activity

>>> value_measured("CN(C)CCNc1cncc(-c2ccc3[nH]cc(-c4ccc(S(C)(=O)=O)cc4)c3c2)n1")
"20.7%"
>>> value_measured("CN(C)CCNc1cncc(-c2ccc3[nH]cc(-c4ccc(S(N)(=O)=O)cc4)c3c2)n1")
"21.3%"
>>> value_measured("CN(C)CCNc1cncc(-c2ccc3[nH]cc(-c4cccc(F)c4F)c3c2)n1")
"19.2%"
>>> value_measured("CN1CCC(CNc2ccc3ncc(-c4cccc(OC(F)(F)F)c4)n3n2)CC1 [SGI-1776]")
"19.8%"
>>> value_measured("CN(C)CCNc1cncc(-c2ccc3[nH]cc(-c4ccc(N)c(C#N)c4)c3c2)n1")
"21.7%"
>>> value_measured("CN(C)CCNc1cncc(-c2ccc3[nH]cc(-c4cc(C#N)ccc4F)c3c2)n1")
"20.6%"

###

The compounds below have reported IC50 for Serine/threonine-protein kinase pim-2 (Homo sapiens, UniProt Q9P1W9).
observable: IC50

>>> value_measured("CN(C)CCNc1cncc(-c2ccc3[nH]cc(-c4ccc(-c5ccccc5)cc4)c3c2)n1")
"5330 nM"
>>> value_measured("COc1ccc(-c2c[nH]c3ccc(-c4cncc(NCCN(C)C)n4)cc23)cc1")
"870 nM"
>>> value_measured("CN(C)CCNc1cncc(-c2ccc3[nH]cc(-c4cccc(F)c4F)c3c2)n1")
"645 nM"
>>> value_measured("CN(C)CCNc1cncc(-c2ccc3[nH]cc(-c4cccc(F)c4)c3c2)n1")
"650 nM"
>>> value_measured("CN(C)CCNc1cncc(-c2ccc3[nH]cc(-c4cccc(OC(F)(F)F)c4)c3c2)n1")
"2780 nM"

###

The compounds below have reported log10 of IC50 for Serine/threonine-protein kinase pim-2 (Homo sapiens, UniProt Q9P1W9).
observable: log10 of IC50 (log10 of the value in nM)

>>> value_measured("CN(C)CCNc1cncc(-c2ccc3[nH]cc(-c4cc(C#N)ccc4F)c3c2)n1")
2.92
>>> value_measured("Cc1cccc(-c2c[nH]c3ccc(-c4cncc(NCCN(C)C)n4)cc23)c1")
2.92
>>> value_measured("CN(C)CCNc1cncc(-c2ccc3[nH]cc(-c4cc(C(=O)O)ccc4F)c3c2)n1")
3.16
>>> value_measured("CN(C)CCNc1cncc(-c2ccc3[nH]cc(-c4cccc(C#N)c4)c3c2)n1")
2.89
>>> value_measured("CN(C)CCNc1cncc(-c2ccc3[nH]cc(-c4ccc(C(F)(F)F)c(F)c4)c3c2)n1")
3.90
>>> value_measured("CN(C)CCNc1cncc(-c2ccc3[nH]cc(-c4cccc(N)c4)c3c2)n1")
2.91

###

// values below are reported log10(IC50)
- system_under_test: Serine/threonine-protein kinase pim-3 (Homo sapiens)
- assay_name: Inhibition of PIM3 (unknown origin)
observable: log10(IC50) (log10 of the value in nM)

>>> value_measured("CN(C)CCN(C)c1cncc(-c2ccc3[nH]cc(-c4ccc(C(F)(F)F)cc4)c3c2)n1")
2.60
>>> value_measured("CN(C)CCCOc1cncc(-c2ccc3[nH]cc(-c4ccc(C(F)(F)F)cc4)c3c2)n1")
2.96
>>> value_measured("COc1cccc(-c2c[nH]c3ccc(-c4cncc(NCCN(C)C)n4)cc23)c1")
1.28
>>> value_measured("O=C1NCCN1c1cncc(-c2ccc3[nH]cc(-c4ccccc4F)c3c2)n1")
2.44
>>> value_measured("CN(C)CCNc1cncc(-c2ccc3[nH]cc(-c4ccc(C#N)cc4)c3c2)n1")
2.19
>>> value_measured("Cc1cccc(-c2c[nH]c3ccc(-c4cncc(NCCN(C)C)n4)cc23)c1")
1.46
>>> value_measured("CN(C)CCNc1cncc(-c2ccc3[nH]cc(-c4cccc(F)c4F)c3c2)n1")
1.34
>>> value_measured("OCCc1cncc(-c2ccc3[nH]cc(-c4ccccc4F)c3c2)n1")
3.48
>>> value_measured("CN(C)CCNc1cncc(-c2ccc3[nH]cc(-c4cccc(F)c4)c3c2)n1")
1.54
>>> value_measured("CN(C)CCNc1cncc(-c2ccc3[nH]cc(-c4ccc(S(C)(=O)=O)cc4)c3c2)n1")
1.70
>>> value_measured("CN(C)CCCNc1cncc(-c2ccc3[nH]cc(-c4ccc(C(F)(F)F)cc4)c3c2)n1")
2.57
>>> value_measured("Cc1ccc(-c2c[nH]c3ccc(-c4cncc(NCCN(C)C)n4)cc23)cc1")
1.52

###

- system_under_test: Serine/threonine-protein kinase pim-2 (Homo sapiens, UniProt Q9P1W9)
- Sequence (Q9P1W9 whole entry): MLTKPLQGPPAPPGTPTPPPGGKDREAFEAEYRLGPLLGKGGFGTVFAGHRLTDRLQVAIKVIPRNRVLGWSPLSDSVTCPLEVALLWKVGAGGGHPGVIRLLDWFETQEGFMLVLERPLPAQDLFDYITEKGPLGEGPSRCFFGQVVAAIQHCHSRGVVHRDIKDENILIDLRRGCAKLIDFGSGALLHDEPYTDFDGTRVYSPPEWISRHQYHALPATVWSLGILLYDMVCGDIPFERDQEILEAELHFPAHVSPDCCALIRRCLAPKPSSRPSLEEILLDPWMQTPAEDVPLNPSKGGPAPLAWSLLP
pIC50: −log10 of the molar value.
observable: pIC50

>>> value_measured("CN(C)CCCNc1cncc(-c2ccc3[nH]cc(-c4ccc(C(F)(F)F)cc4)c3c2)n1")
"< 5.00"
>>> value_measured("O=C1NCCN1c1cncc(-c2ccc3[nH]cc(-c4ccccc4F)c3c2)n1")
"< 5.00"
>>> value_measured("CN(C)CCN(C)c1cncc(-c2ccc3[nH]cc(-c4ccc(C(F)(F)F)cc4)c3c2)n1")
"< 5.00"
